molecular target: recombinant IDO1 (Homo sapiens, UniProt P14902); test: IDO1 enzymatic assay (UV absorption, N-formylkynurenine formation); settings: 40 nM IDO1, 900 μM tryptophan, 180 min, room temperature; read-out: Enzyme IDO IC50
Sequence (P14902 whole entry, species assumed): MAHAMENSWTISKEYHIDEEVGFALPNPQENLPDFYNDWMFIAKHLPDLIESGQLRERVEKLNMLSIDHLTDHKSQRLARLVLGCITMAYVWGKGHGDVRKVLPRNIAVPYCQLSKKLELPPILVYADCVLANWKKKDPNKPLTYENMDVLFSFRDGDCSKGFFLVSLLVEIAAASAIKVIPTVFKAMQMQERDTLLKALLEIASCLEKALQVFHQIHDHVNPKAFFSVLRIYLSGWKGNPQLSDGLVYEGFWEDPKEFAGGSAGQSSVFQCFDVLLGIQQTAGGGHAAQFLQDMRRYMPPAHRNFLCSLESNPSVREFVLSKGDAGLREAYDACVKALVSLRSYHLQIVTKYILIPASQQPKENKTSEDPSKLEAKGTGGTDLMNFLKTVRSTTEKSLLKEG
Known IC50 of a selection of compounds

>  <compound>
FC(CC1Cc2ccccc2-c2cncn21)C1CCCCC1 (stereo not drawn) [Cmpd 311]

>  <study_system>
recombinant IDO1 (Homo sapiens, UniProt P14902)

>  <IC50>
310 nM

$$$$
>  <compound>
FC(CC1Cc2ccccc2-c2cncn21)C1CCCCC1 (stereo not drawn) [Cmpd 301]

>  <study_system>
recombinant IDO1 (Homo sapiens, UniProt P14902)

>  <IC50>
133 nM

$$$$
>  <compound>
OC(CC1(C(F)(F)F)c2ccccc2-c2cncn21)C1CCCCC1 (stereo not drawn) [Cmpd 291]

>  <study_system>
recombinant IDO1 (Homo sapiens, UniProt P14902)

>  <IC50>
> 100000 nM

$$$$

---

target: recombinant TDO2 (Homo sapiens, UniProt P48775); test: TDO2 enzymatic assay (UV absorption, N-formylkynurenine formation); assay type: biochemical; details: IC50 of compound divided by IC50 of Ref. Cmpd 1
Sequence (P48775 whole entry, species assumed): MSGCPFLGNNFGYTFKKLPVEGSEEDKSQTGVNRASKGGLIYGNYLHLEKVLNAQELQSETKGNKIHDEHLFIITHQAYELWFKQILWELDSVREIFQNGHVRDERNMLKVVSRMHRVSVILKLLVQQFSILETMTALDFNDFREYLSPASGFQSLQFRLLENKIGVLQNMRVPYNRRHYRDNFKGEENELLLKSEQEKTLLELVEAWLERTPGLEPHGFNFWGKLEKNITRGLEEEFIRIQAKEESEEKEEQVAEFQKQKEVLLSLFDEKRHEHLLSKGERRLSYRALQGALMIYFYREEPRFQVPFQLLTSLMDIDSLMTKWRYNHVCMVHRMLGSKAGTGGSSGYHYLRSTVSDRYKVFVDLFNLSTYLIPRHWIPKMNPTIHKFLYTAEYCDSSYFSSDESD
Rule: Enzyme TDO IC50 ratio compared to Ref. Cmpd 1 below 8 gives 1 (yes). Equal to or above 8 gives 0 (no).

>  <molecule>
FC(CC1Cn2cncc2-c2ccccc21)C1CCCCC1 (centres unmarked)

>  <study_system>
recombinant TDO2 (Homo sapiens, UniProt P48775)

>  <class_assignment>
1 (yes)

$$$$
>  <molecule>
CC1c2ccccc2-c2cncn2C1C(O)C1CCCCC1 (centres unmarked)

>  <study_system>
recombinant TDO2 (Homo sapiens, UniProt P48775)

>  <class_assignment>
0 (no)

$$$$
>  <molecule>
OC(/C=C/c1c(F)cccc1-c1c[nH]cn1)C1CCCCC1 (centres unmarked)

>  <study_system>
recombinant TDO2 (Homo sapiens, UniProt P48775)

>  <class_assignment>
0 (no)

$$$$
>  <molecule>
OC(CC1CCc2ccccc2-c2cncn21)C1CCCCC1 (centres unmarked)

>  <study_system>
recombinant TDO2 (Homo sapiens, UniProt P48775)

>  <class_assignment>
1 (yes)

$$$$
>  <molecule>
O[C@@H](C[C@@H]1Cn2cncc2-c2ccccc21)C1CCCCC1 (racemic)

>  <study_system>
recombinant TDO2 (Homo sapiens, UniProt P48775)

>  <class_assignment>
1 (yes)

$$$$

---

target: recombinant TDO2 (Homo sapiens, UniProt P48775); assay: TDO2 enzymatic assay (UV absorption, N-formylkynurenine formation); details: 50 nM TDO2, 200 μM tryptophan, 60 min, room temperature; read-out: Enzyme TDO IC50
pIC50: −log10 of the molar value.
Binary classification by pIC50, with 6 as an inclusive lower bound for Yes; all other cases are No.

>  <compound>
FC(CC1Cn2cncc2-c2ccccc21)C1CCCCC1 (stereo not drawn)

>  <study_system>
recombinant TDO2 (Homo sapiens, UniProt P48775)

>  <class_assignment>
Yes

$$$$
>  <compound>
OC(CC1C(O)c2ccccc2-c2cncn21)C1CCCCC1 (stereo not drawn) [Cmpd 309]

>  <study_system>
recombinant TDO2 (Homo sapiens, UniProt P48775)

>  <class_assignment>
No

$$$$
>  <compound>
O[C@@H](C[C@@H]1Cn2cncc2-c2ccccc21)C1CCCCC1 (racemic)

>  <study_system>
recombinant TDO2 (Homo sapiens, UniProt P48775)

>  <class_assignment>
Yes

$$$$
>  <compound>
OC(CC1CCc2ccccc2-c2cncn21)C1CCCCC1 (stereo not drawn)

>  <study_system>
recombinant TDO2 (Homo sapiens, UniProt P48775)

>  <class_assignment>
No

$$$$
>  <compound>
CC1(CC(O)C2CCCCC2)c2ccccc2-c2cncn21 (stereo not drawn)

>  <study_system>
recombinant TDO2 (Homo sapiens, UniProt P48775)

>  <class_assignment>
No

$$$$
>  <compound>
FC(CC1Cc2ccccc2-c2cncn21)C1CCCCC1 (stereo not drawn) [Cmpd 312]

>  <study_system>
recombinant TDO2 (Homo sapiens, UniProt P48775)

>  <class_assignment>
Yes

$$$$
>  <compound>
OC(CC1(C(F)(F)F)c2ccccc2-c2cncn21)C1CCCCC1 (stereo not drawn)

>  <study_system>
recombinant TDO2 (Homo sapiens, UniProt P48775)

>  <class_assignment>
No

$$$$
>  <compound>
OC1c2ccccc2C(CC(O)C2CCCCC2)n2cncc21 (stereo not drawn)

>  <study_system>
recombinant TDO2 (Homo sapiens, UniProt P48775)

>  <class_assignment>
No

$$$$
>  <compound>
OC1CCC(C(O)CC2(C(F)(F)F)c3c(F)cccc3-c3cncn32)CC1 (stereo not drawn) [Cmpd 293]

>  <study_system>
recombinant TDO2 (Homo sapiens, UniProt P48775)

>  <class_assignment>
No

$$$$
>  <compound>
OC(C1CCCCC1)C1CC1c1c(F)cccc1-c1c[nH]cn1 (stereo not drawn)

>  <study_system>
recombinant TDO2 (Homo sapiens, UniProt P48775)

>  <class_assignment>
No

$$$$
>  <compound>
O[C@@H](C[C@H]1Cn2cncc2-c2ccccc21)C1CCCCC1 (racemic)

>  <study_system>
recombinant TDO2 (Homo sapiens, UniProt P48775)

>  <class_assignment>
Yes

$$$$
>  <compound>
OC(CC1c2ccccc2Cc2cncn21)C1CCCCC1 (stereo not drawn)

>  <study_system>
recombinant TDO2 (Homo sapiens, UniProt P48775)

>  <class_assignment>
No

$$$$

---

target: recombinant IDO1 (Homo sapiens); assay: IDO1 enzymatic assay (UV absorption, N-formylkynurenine formation); assay type: biochemical; details: IC50 of compound divided by IC50 of reference compound 2
Label key: true means Enzyme IDO IC50 ratio compared to Cmpd 2 under 8; false means Enzyme IDO IC50 ratio compared to Cmpd 2 of 8 or more.

>  <compound>
O[C@@H](C[C@@H]1Cn2cncc2-c2ccccc21)C1CCCCC1 (racemic) [Cmpd 306]

>  <study_system>
recombinant IDO1 (Homo sapiens)

>  <class_assignment>
false

$$$$
>  <compound>
OC(CCc1c(F)cccc1-c1c[nH]cn1)C1CCCCC1 (stereo not shown) [Cmpd 302]

>  <study_system>
recombinant IDO1 (Homo sapiens)

>  <class_assignment>
false

$$$$
>  <compound>
FC(CC1Cc2ccccc2-c2cncn21)C1CCCCC1 (stereo not shown) [Cmpd 312]

>  <study_system>
recombinant IDO1 (Homo sapiens)

>  <class_assignment>
true

$$$$
>  <compound>
OC(CC1CCc2ccccc2-c2cncn21)C1CCCCC1 (stereo not shown) [Cmpd 279]

>  <study_system>
recombinant IDO1 (Homo sapiens)

>  <class_assignment>
false

$$$$
>  <compound>
FC(CC1Cc2ccccc2-c2cncn21)C1CCCCC1 (stereo not shown) [Cmpd 301]

>  <study_system>
recombinant IDO1 (Homo sapiens)

>  <class_assignment>
true

$$$$
>  <compound>
CC1(CC(O)C2CCCCC2)c2ccccc2-c2cncn21 (stereo not shown) [Cmpd 296]

>  <study_system>
recombinant IDO1 (Homo sapiens)

>  <class_assignment>
false

$$$$
>  <compound>
OC1CCC(C(F)CC2Cc3ccccc3-c3cncn32)CC1 (stereo not shown) [Cmpd 310]

>  <study_system>
recombinant IDO1 (Homo sapiens)

>  <class_assignment>
false

$$$$
>  <compound>
OC(CC1C(O)c2ccccc2-c2cncn21)C1CCCCC1 (stereo not shown) [Cmpd 309]

>  <study_system>
recombinant IDO1 (Homo sapiens)

>  <class_assignment>
false

$$$$
>  <compound>
OC(CC1Cc2ccccc2-c2cncn21)C1CCCCC1 (stereo not shown) [Cmpd 278]

>  <study_system>
recombinant IDO1 (Homo sapiens)

>  <class_assignment>
true

$$$$
>  <compound>
FC(CC1Cc2ccccc2-c2cncn21)C1CCCCC1 (stereo not shown) [Cmpd 311]

>  <study_system>
recombinant IDO1 (Homo sapiens)

>  <class_assignment>
false

$$$$
>  <compound>
FC(CC1Cn2cncc2-c2ccccc21)C1CCCCC1 (stereo not shown) [Cmpd 307]

>  <study_system>
recombinant IDO1 (Homo sapiens)

>  <class_assignment>
true

$$$$
>  <compound>
OC(CC1c2ccccc2Cc2cncn21)C1CCCCC1 (stereo not shown) [Cmpd 297]

>  <study_system>
recombinant IDO1 (Homo sapiens)

>  <class_assignment>
false

$$$$
>  <compound>
OC(CC1C(O)c2ccccc2-c2cncn21)C1CCCCC1 (stereo not shown) [Cmpd 308]

>  <study_system>
recombinant IDO1 (Homo sapiens)

>  <class_assignment>
false

$$$$
>  <compound>
CC1c2ccccc2-c2cncn2C1C(O)C1CCCCC1 (stereo not shown) [Cmpd 295]

>  <study_system>
recombinant IDO1 (Homo sapiens)

>  <class_assignment>
false

$$$$
>  <compound>
OC(C1CCCCC1)C1CC1c1c(F)cccc1-c1c[nH]cn1 (stereo not shown) [Cmpd 304]

>  <study_system>
recombinant IDO1 (Homo sapiens)

>  <class_assignment>
false

$$$$

---

Target: recombinant IDO1 (Homo sapiens, UniProt P14902)
Experiment: IDO1 enzymatic assay (UV absorption, N-formylkynurenine formation)
Conditions: 40 nM IDO1, 900 μM tryptophan, 180 min, room temperature; read-out: Enzyme IDO IC50
Method: The assay was performed by UV absorption using either recombinant IDO1 or TDO2 and L-Tryptophan as substrate. The UV absorption signal at 321 nm was correlated with the amount of N-formylkynurenine reaction product of IDO1 and TDO2. […] IDO1 Assay: All of the reactions were conducted at room temperature. […] The reaction mixture was incubated for 180 min prior to reading of the UV absorption signal. […] Absorption signals were measured using a Tecan Infinite M1000 plate reader. […]
# IC50 per record follows

>  <molecule>
FC(CC1Cn2cncc2-c2ccccc21)C1CCCCC1 (stereo not shown)

>  <operator_symbol>
=

>  <IC50, µM>
0.299

$$$$
>  <molecule>
OC(CC1c2ccccc2Cc2cncn21)C1CCCCC1 (stereo not shown)

>  <operator_symbol>
=

>  <IC50, µM>
14

$$$$
>  <molecule>
OC(CC1C(O)c2ccccc2-c2cncn21)C1CCCCC1 (stereo not shown) [Cmpd 308]

>  <operator_symbol>
=

>  <IC50, µM>
23

$$$$
>  <molecule>
OC(C1CCCCC1)C1CC1c1c(F)cccc1-c1c[nH]cn1 (stereo not shown)

>  <operator_symbol>
=

>  <IC50, µM>
12.5

$$$$
>  <molecule>
OC1CCC(C(O)CC2(C(F)(F)F)c3c(F)cccc3-c3cncn32)CC1 (stereo not shown) [Cmpd 292]

>  <operator_symbol>
>

>  <IC50, µM>
100

$$$$
>  <molecule>
OC(/C=C/c1c(F)cccc1-c1c[nH]cn1)C1CCCCC1 (stereo not shown)

>  <operator_symbol>
>

>  <IC50, µM>
30

$$$$
>  <molecule>
FC(CC1Cc2ccccc2-c2cncn21)C1CCCCC1 (stereo not shown) [Cmpd 312]

>  <operator_symbol>
=

>  <IC50, µM>
0.049

$$$$
>  <molecule>
OC(CCc1c(F)cccc1-c1c[nH]cn1)C1CCCCC1 (stereo not shown)

>  <operator_symbol>
=

>  <IC50, µM>
19.9

$$$$
>  <molecule>
OC(CC1CCc2ccccc2-c2cncn21)C1CCCCC1 (stereo not shown)

>  <operator_symbol>
=

>  <IC50, µM>
7.1

$$$$
>  <molecule>
O[C@@H](C[C@H]1Cn2cncc2-c2ccccc21)C1CCCCC1 (racemic)

>  <operator_symbol>
=

>  <IC50, µM>
0.328

$$$$
